Below: a set of entries, each annotated with reported pEC50.
Tested on: eNOS promoter
protocol_summary: Activation of eNOS transcription (eNOS promoter-luciferase reporter gene assay)
Assay type: cell-based
condition_label: human endothelial cell line stably transfected with eNOS promoter-firefly luciferase construct; 18 h incubation; EC50 determined graphically; read-out: EC50 of transcription induction ratio (TIR)
Counter-ions that a name gives are not always drawn.
The scale used: pEC50 is minus the common logarithm of the concentration in molar units.

Below are worked cases with known answers.
compound	pEC50
O=C1[C@H](Cc2cccc(F)c2)N2C(=O)c3cc(C(F)(F)F)ccc3N(CCCn3ccnc3)C2CN1CCCCc1ccccc1 (some centres unmarked) [Example 16, trifluoroacetic acid salt]	5.10
CC(C)[C@H]1C(=O)N(Cc2ccc(C(C)(C)C)cc2)CC2N(CCCn3ccnc3)c3ccc(C(F)(F)F)cc3C(=O)N21 (some centres unmarked) [Example 15, trifluoroacetic acid salt]	5.40
CC(C)[C@H]1C(=O)N(Cc2ccc(C(F)(F)F)cc2)CC2N(CCCn3ccnc3)c3ccc(C(F)(F)F)cc3C(=O)N21 (some centres unmarked) [Example 11, trifluoroacetic acid salt]	4.70
CC(C)[C@H]1C(=O)N(Cc2ccc(C(C)(C)C)cc2)CC2N(CCCn3ccnc3)c3ccc([N+](=O)[O-])cc3C(=O)N21 (some centres unmarked) [Example 2, trifluoroacetic acid salt]	5.92

Consider the compound O=C1[C@H](C2CCCCC2)N2C(=O)c3cc([N+](=O)[O-])ccc3N(CCCn3ccnc3)C2CN1CCCCc1ccccc1 (some centres unmarked) [Example 5, trifluoroacetic acid salt] and give its measured pEC50.
5.55
